- Assay Overview: yeast display, Sf9 membrane polyspecificity reagent, FACS + sequencing; frameworks hold sequencing errors
Measure: polyreactivity (PSR sort gate)

QVQLVESGGGLVQAGGSLRLSCAASGNTFRAYAMGWYRQAPGKERELVATITWSGGITDYADSVKGRFTISRDNAKNTVYLQMNSLKPEDTAVYYCAARSYRWWNFNYWGQGTQVTVSS = high polyreactivity
QVQLVESGGGLVQAGGSLRLSCADSGSIFGVNVMGWYRQAPGKDRELVAAITSIGGRTYYADSVKGRFTISRDNAKNTVYLQMNSLKPEDTAVYYCNADYTGAEYDYWGQGTQVTVSS = low polyreactivity
QVQLVESGGGLVQARGSLRLSCAASGSIFRKYAMGWYRQAPGKERELVAVITTDGSTNYADSVKGRFTISRDNAKNTVYLQMNSLKPEDTAVYYCNAVRSSIGTDNVYWGLGTQVTVSS = low polyreactivity
QVQLVESGGGLVQAGGSLRLSCAASGRTFKPNAMGWYRQAPGKERELVASINDVGSTNYADSVKGRFTISRDNAKNTVYLQMNSLKPEDTAVYYCAADPYWYPYYGYYILYDYWGQGTHVTVSS = low polyreactivity
QVQLVESGGGLVQAGGSLRLSCAASGIIFKTYTMGWYRTAPGKERELVAAITFSGGSTYYADSVKGRFTISRDNAKNTVYLQMNSLKPEDTAVYYCADTHRFWWYSDDYWGQGTQVTVSS = high polyreactivity

get_value(item= "QVQLVESGGGLVQAGRSLRLSCAASGITFSRNDMGWYRQAPGKEMQLVAAISRSGGRTYYADSVKGRFTLSRDNAKNTVYLQMNCLNPEDTAVYYCNRDIGGTSVLDDYWGQGTQVTVSS" , readout=polyreactivity (PSR sort gate)) returns low polyreactivity

get_value(item= "QVQLVESGGALVQAGGSLRLSCAASGFTFLIYAKGWYIQAPGKERELVAAITWRGSGTYYADCVKGRFTISRDNGQNTVYLQMNSLKPEDSAVYYCAARTARRTYDYWGQGTQVTVSS" , readout=polyreactivity (PSR sort gate)) returns low polyreactivity

get_value(item= "QVQLVESGGGLVQAGGSLRLSCAASGFTFSTYAMGWYRQAPGKERELVAAISFSGGSTYYADSVKGRFTISRDNAKNTVYLQMNSLKPEDTAVYYCNAVFGYRLPGNYWGQGTQVTVSS" , readout=polyreactivity (PSR sort gate)) returns low polyreactivity

get_value(item= "QVQLVESGGGLVQAGGSLRLSCAASGFTLQGYAMGWYRQAPGKERELVAAIRWIGTSTYYADSVKGRFTISRDYAKNTVYFQMNSLKPEDTAVYYCAAYRYNTPFGYWGQGTQVTVSS" , readout=polyreactivity (PSR sort gate)) returns high polyreactivity
